meta.source: patent US20220348590A1

COX2 2 minutes pge2 area (counts) Avg. LLE by entry:
- Target Or Test System: human recombinant COX2 (hCOX2) (UniProt P35354)
- Assay: LCMS-based COX2 enzymatic inhibition assay (PGE2 quantification)
- Assay type: biochemical
- Parameters: COX2 2 minutes pge2/pge2d4 area ratio Avg; other: 2 minutes; readout pge2/pge2d4 area ratio; average; COX2 2 minutes pge2/pge2d4 area ratio Avg; LLE; average LLE; COX2 2 minutes pge2 area (counts) Avg; readout pge2 area (counts); other: 2 min; "ovine COX2 (oCOX2), human recombinant COX2 (hCOX2)"
- Applied Conditions: 2 minutes; readout pge2 area (counts); average LLE
Endpoint Name: COX2 2 minutes pge2 area (counts) Avg. LLE

1) CN1CC[C@@H](CNc2cncc(-c3ccc(S(C)(=O)=O)cc3)n2)C1; 4.594
2) CS(=O)(=O)c1ccc(-c2cncc(OCc3cccs3)c2)cc1; 2.107
3) CS(=O)(=O)c1ccc(-c2cccc(NCc3cnco3)n2)cc1; 3.646
4) CN(Cc1ccoc1)c1cccc(-c2ccc(S(C)(=O)=O)cc2)n1; 4.612
5) CC(=O)c1ncc(-c2ccc(S(C)(=O)=O)cc2)nc1NCc1cccs1; 3.915
6) CS(=O)(=O)c1ccc(-c2cccc(NCc3cccs3)n2)cn1; 5.062
7) CS(=O)(=O)c1ccc(-c2cncc(NCc3ccno3)n2)cc1; 5.757
8) Cn1ccc(CNc2cncc(-c3ccc(S(C)(=O)=O)cc3)n2)n1; 4.621
9) CS(=O)(=O)c1ccc(-c2cnc(N)c(NCc3cccs3)n2)cc1; 4.629
10) CS(=O)(=O)c1ccc(-c2cccc(NCc3ccon3)n2)cc1; 5.0953
11) Cc1ncc(NCc2cccs2)nc1-c1ccc(S(C)(=O)=O)cc1; 4.838

* * *

- Target Or Test System: human recombinant COX2 (hCOX2)
- Assay: LCMS-based COX2 enzymatic inhibition assay (PGE2 quantification)
- Assay type: biochemical
- Parameters: COX2 2 minutes pge2/pge2d4 area ratio Avg; other: 2 minutes; readout pge2/pge2d4 area ratio; average; COX2 2 minutes pge2/pge2d4 area ratio Avg; LLE; average LLE; COX2 2 minutes pge2 area (counts) Avg; readout pge2 area (counts); other: 2 min; "ovine COX2 (oCOX2), human recombinant COX2 (hCOX2)"
- Applied Conditions: 2 minutes; readout pge2 area (counts); average; read-out: COX2 2 minutes pge2 area (counts) Avg. IC50
Endpoint Name: log10(IC50) (log10 of the value in nM)

1) CS(=O)(=O)c1ccc(-c2nc(OCc3cccs3)ccc2F)cc1; 1.89
2) CS(=O)(=O)c1ccc(-c2cncc(NCc3cccs3)n2)nc1; 2.23
3) Cc1cocc1CNc1cccc(-c2ccc(S(C)(=O)=O)cc2)n1; 1.32
4) CS(=O)(=O)c1ccc(-c2cncc(NCc3nccs3)n2)cc1; 2.91
5) CC(=O)c1ncc(-c2ccc(S(C)(=O)=O)cc2)nc1NCc1cccs1; 3.03
6) CS(=O)(=O)c1ccc(-c2cc(NCc3cccs3)cnn2)cc1; 3.32
7) CS(=O)(=O)c1ccc(-c2cnc3ccn(Cc4nccs4)c3n2)cc1; 2.72
8) CS(=O)(=O)c1ccc(-c2cnc3ccn(Cc4cccs4)c3c2)cc1; 2.05
9) CS(=O)(=O)c1ccc(-c2ncc3ccn(Cc4cccs4)c3n2)cc1; 1.62

* * *

Consider the following molecules and their measured COX2 2 minutes pge2 area (counts) Avg. LLE readings.
- Target Or Test System: human recombinant COX2 (hCOX2) (UniProt P35354)
- Assay: LCMS-based COX2 enzymatic inhibition assay (PGE2 quantification)
- Type: biochemical
- Parameters: COX2 2 minutes pge2/pge2d4 area ratio Avg; other: 2 minutes; readout pge2/pge2d4 area ratio; average; COX2 2 minutes pge2/pge2d4 area ratio Avg; LLE; average LLE; COX2 2 minutes pge2 area (counts) Avg; readout pge2 area (counts); other: 2 min; "ovine COX2 (oCOX2), human recombinant COX2 (hCOX2)"
- Applied Conditions: 2 minutes; readout pge2 area (counts); average LLE
Endpoint Name: COX2 2 minutes pge2 area (counts) Avg. LLE

1) CC(C)CNc1cncc(-c2ccc(S(C)(=O)=O)cc2)n1; 4.636
2) Cc1ncc(-c2ccc(S(C)(=O)=O)cc2)nc1NCc1cccs1; 4.37
3) C[C@H](Nc1cccc(-c2ccc(S(C)(=O)=O)cc2)n1)c1ccco1 (single isomer, unassigned); 3.875
4) CS(=O)(=O)c1ccc(-c2nc(NCc3cccs3)cnc2C(N)=O)cc1; 4.347
5) CS(=O)(=O)c1ccc(-c2ccc3ccn(Cc4cccs4)c3n2)cc1; 3.116
6) COc1ncc(-c2ccc(S(N)(=O)=O)cc2)nc1NCc1cccs1; 5.591
7) CS(=O)(=O)c1ccc(-c2ccc3ncn(Cc4cccs4)c3n2)cc1; 2.324
8) CS(=O)(=O)c1ccc(-c2cncc(NC(=O)c3cccs3)n2)cc1; 4.524
9) CS(=O)(=O)c1ccc(-c2ccc3cnn(Cc4cccs4)c3n2)cc1; 3.961
10) Cc1cocc1CNc1cccc(-c2ccc(S(C)(=O)=O)cc2)n1; 4.487
11) CS(=O)(=O)c1ccc(-c2cccc(NCc3ccco3)n2)cn1; 3.534
12) CS(=O)(=O)c1ccc(-c2cnnc(NCc3cccs3)c2)cc1; 2.953
13) CS(=O)(=O)c1ccc(-c2ccnc(OCc3cccs3)c2)cc1; 1.6998

* * *

- Target Or Test System: ovine COX-1 (oCOX-1) (Ovis aries)
- Construct: purchased Cayman Chemicals (Ann Arbor, Mich.)
- Sequence (P05979 25-600): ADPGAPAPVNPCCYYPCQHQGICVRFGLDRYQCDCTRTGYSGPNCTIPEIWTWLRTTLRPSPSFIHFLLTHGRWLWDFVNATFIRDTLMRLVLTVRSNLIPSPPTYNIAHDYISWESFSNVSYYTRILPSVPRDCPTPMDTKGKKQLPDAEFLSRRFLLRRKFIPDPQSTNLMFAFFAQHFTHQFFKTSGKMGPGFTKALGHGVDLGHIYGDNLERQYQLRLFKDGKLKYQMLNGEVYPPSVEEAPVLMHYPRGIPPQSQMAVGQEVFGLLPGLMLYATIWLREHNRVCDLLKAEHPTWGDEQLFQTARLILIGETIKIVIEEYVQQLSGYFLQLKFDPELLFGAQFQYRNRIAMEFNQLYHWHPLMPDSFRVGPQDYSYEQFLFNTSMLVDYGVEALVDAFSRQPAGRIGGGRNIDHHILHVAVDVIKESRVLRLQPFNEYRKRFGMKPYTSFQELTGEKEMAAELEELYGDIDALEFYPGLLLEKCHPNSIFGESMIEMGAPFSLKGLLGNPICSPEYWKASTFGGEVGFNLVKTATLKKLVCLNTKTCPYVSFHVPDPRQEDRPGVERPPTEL
- Assay: LCMS-based COX-1 enzymatic inhibition assay (PGE2 quantification)
- Format: biochemical
- Applied Conditions: 10 minutes; readout pge2 area (counts); average LLE
Each item that follows carries a reported COX1 10 minutes pge2 area (counts) Avg. LLE.
Endpoint Name: COX1 10 minutes pge2 area (counts) Avg. LLE

1) CS(=O)(=O)c1ccc(-c2cccc(/C=C\c3ccoc3)n2)cc1; 0.724
2) CS(=O)(=O)c1ccc(-c2cccc(NCc3ccc(F)o3)n2)cc1; 3.085
3) CS(=O)(=O)c1ccc(-c2cncc(SCc3cccs3)n2)cc1; 2.308
4) C[C@H](Oc1cncc(-c2ccc(S(C)(=O)=O)cc2)n1)c1cccs1 (single isomer, unassigned); 2.0112
5) CS(=O)(=O)c1ccc(-c2cncc(SCc3ccoc3)n2)cc1; 1.801
6) CS(=O)(=O)c1ccc(-c2ccc3ccn(Cc4ccoc4)c3n2)cc1; 0.6431
7) COc1cc(NCc2cccs2)nc(-c2ccc(S(C)(=O)=O)cc2)c1; 0.9785
8) CS(=O)(=O)c1ccc(-c2ccc(F)c(NCc3ccco3)n2)cc1; 1.404

* * *

- Target Or Test System: human recombinant COX2 (hCOX2) (UniProt P35354)
- Sequence (P35354 1-604): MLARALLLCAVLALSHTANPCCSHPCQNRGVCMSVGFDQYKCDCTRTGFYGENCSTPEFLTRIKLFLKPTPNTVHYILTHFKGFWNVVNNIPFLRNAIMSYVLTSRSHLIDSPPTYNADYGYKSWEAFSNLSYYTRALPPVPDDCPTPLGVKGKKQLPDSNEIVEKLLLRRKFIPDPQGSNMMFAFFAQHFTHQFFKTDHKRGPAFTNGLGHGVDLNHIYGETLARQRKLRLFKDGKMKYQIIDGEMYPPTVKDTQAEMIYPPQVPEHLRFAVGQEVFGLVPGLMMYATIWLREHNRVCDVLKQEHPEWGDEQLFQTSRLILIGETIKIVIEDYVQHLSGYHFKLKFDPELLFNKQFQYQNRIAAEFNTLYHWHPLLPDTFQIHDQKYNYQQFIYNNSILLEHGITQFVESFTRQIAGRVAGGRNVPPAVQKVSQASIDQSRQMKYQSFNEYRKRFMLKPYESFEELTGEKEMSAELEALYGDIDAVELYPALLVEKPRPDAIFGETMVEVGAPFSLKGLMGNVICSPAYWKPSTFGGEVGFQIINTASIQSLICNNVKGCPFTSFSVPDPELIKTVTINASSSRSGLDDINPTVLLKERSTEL
- Assay: LCMS-based COX2 enzymatic inhibition assay (PGE2 quantification)
- Assay type: biochemical
- Design: COX2 2 minutes pge2/pge2d4 area ratio Avg; other: 2 minutes; readout pge2/pge2d4 area ratio; average; COX2 2 minutes pge2/pge2d4 area ratio Avg; LLE; average LLE; COX2 2 minutes pge2 area (counts) Avg; readout pge2 area (counts); other: 2 min; "ovine COX2 (oCOX2), human recombinant COX2 (hCOX2)"
- Applied Conditions: 2 minutes; readout pge2/pge2d4 area ratio; average LLE
// reported COX2 2 minutes pge2/pge2d4 area ratio Avg. LLE for each item listed
Endpoint Name: COX2 2 minutes pge2/pge2d4 area ratio Avg. LLE

1) CS(=O)(=O)c1ccc(-c2cccc(NCc3cnoc3)n2)cc1; 5.1378
2) CS(=O)(=O)c1ccc(-c2ccc(F)c(NCc3ccco3)n2)cc1; 5.1257
3) CS(=O)(=O)c1ccc(-c2cncc(OC[C@@H]3CCCO3)n2)cc1; 4.054
4) CS(=O)(=O)c1ccc(-c2cccc(NCc3ccoc3)n2)cc1; 4.86
